Source of measurements: PubChem BioAssay AID1851

- Assay system: Cytochrome P450 1A2 (Homo sapiens) (UniProt P05177)
- Sequence (P05177 whole entry, looked up): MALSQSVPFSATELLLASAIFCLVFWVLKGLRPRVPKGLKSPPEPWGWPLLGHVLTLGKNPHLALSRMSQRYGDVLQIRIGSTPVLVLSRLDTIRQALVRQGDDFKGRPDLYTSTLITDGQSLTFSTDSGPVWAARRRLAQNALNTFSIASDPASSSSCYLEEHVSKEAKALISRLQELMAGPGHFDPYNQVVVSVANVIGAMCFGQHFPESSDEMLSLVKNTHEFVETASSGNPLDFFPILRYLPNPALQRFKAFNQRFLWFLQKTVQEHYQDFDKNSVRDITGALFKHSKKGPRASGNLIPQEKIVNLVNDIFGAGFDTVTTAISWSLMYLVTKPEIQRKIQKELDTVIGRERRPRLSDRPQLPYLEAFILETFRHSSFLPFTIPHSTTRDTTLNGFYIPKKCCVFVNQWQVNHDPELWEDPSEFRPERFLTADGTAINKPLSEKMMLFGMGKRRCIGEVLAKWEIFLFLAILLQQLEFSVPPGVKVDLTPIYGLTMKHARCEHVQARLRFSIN
- Assay remarks: Cytochrome panel assay with activity outcomes; further: on the % scale 0 is the no-effect control and ±100 the full control effect
- Recorded conditions: recombinant CYP, pro-luciferin dealkylation, luminescence, p450-cyp1a2; series mostly up to 57.1 µM
In all, about 16,000 compounds went through this assay and about 5,700 (36%) were called active. About 24% were inconclusive and are not listed. The list shows a part of the results.
Assay readout: activity, negative = inhibition

Worked examples, 4 molecules total:
- Input smiles: "S=C1SCN(C2CCCCCCCCCCC2)CN1C1CCCCCCCCCCC1"
  Assay system: "Cytochrome P450 1A2 (Homo sapiens) (UniProt P05177)"
  Reading: "-14.7% [at 2.29 µM] (inactive)"
- Input smiles: "C/C(CCN1CCCCc2nc(C)c(C)cc21)=N\\OC[C@@H](O)COCc1ccco1"
  Assay system: "Cytochrome P450 1A2 (Homo sapiens) (UniProt P05177)"
  Reading: "-9.9% [at 11.4 µM] (inactive)"
- Input smiles: "O[C@H](CNc1ccccn1)c1ccccc1"
  Assay system: "Cytochrome P450 1A2 (Homo sapiens) (UniProt P05177)"
  Reading: "-29.6% [at 11.4 µM] (inactive)"
- Input smiles: "CC(C)[C@@H](OCc1ccccc1)[C@H](C)/C=N\\OC[C@@H](O)[C@@H]1O[C@@H]2OC(C)(C)O[C@@H]2[C@H]1O"
  Assay system: "Cytochrome P450 1A2 (Homo sapiens) (UniProt P05177)"
  Reading: "-0.825% [at 11.4 µM] (inactive)"

Form entry - test system: Cytochrome P450 1A2 (Homo sapiens) (UniProt P05177); read-out: activity, negative = inhibition; molecule: CC(C)(N)C(=O)N[C@@H]1C(=O)N2[C@@H]1SC(C)(C)[C@H]2C(=O)O
4.41% [at 2.29 µM] (inactive)

Now give it for Oc1ccccc1CNCc1ccccc1O too.
-17.8% [at 11.4 µM] (inactive)
